Across several studies, molecules have been characterized by their IC50 on Sodium-dependent serotonin transporter (Rattus norvegicus); a selection follows.
OBSERVED_PROPERTY: IC50 (nM)

Known IC50 results, listed for orientation:
{"columns": ["MOLECULE", "OUTPUT_UNIT", "IC50"],
 "data": [
  ["Brc1cc(I)cc(COCC(c2ccccc2)N2CCNCC2)c1 (stereo not given)", "nM", 25.1],
  ["CCN1CCc2c(sc3ccccc23)C(c2cccc([N+](=O)[O-])c2)C1 (stereo not given)", "nM", 1100],
  ["NC(=O)c1ccc2[nH]cc(C3=CCC(NCCCCCCNC4CC=C(c5c[nH]c6ccc(C(N)=O)cc56)CC4)CC3)c2c1 (stereo not given)", "nM", 33.9],
  ["NC(=O)c1ccc2[nH]cc(C3=CCC(NCCCCNC4CC=C(c5c[nH]c6ccc(C(N)=O)cc56)CC4)CC3)c2c1 (stereo not given)", "nM", 47.8],
  ["Fc1cccc(C(COCc2cc(C(F)(F)F)cc(C(F)(F)F)c2)N2CCNCC2)c1F (stereo not given)", "nM", 316]
]}

A: CC(OCCC1CCN(Cc2ccc(F)cc2)CC1)c1ccccc1 (stereo not given)
B: O=C1CC2(CCCC2)CC(=O)N1CCCCN1CCN(c2ccc3ccccc3n2)CC1
Returns the identifier with the smallest measured IC50 among A and B . Let me know the label of the one you choose.
B
(B: 112 nM, A: 5860 nM)

###

Across several studies, compounds have been characterized by their IC50 on Sodium-dependent serotonin transporter (Rattus norvegicus, UniProt P31652); a selection follows.
OBSERVED_PROPERTY: IC50 (nM)

Known IC50 results, listed for orientation:
{"columns": ["COMPOUND", "TGT", "IC50, nM"],
 "data": [
  ["Clc1cccc(COCC(c2ccccc2)N2CCNCC2)c1 (stereo not given)", "Sodium-dependent serotonin transporter (Rattus norvegicus, UniProt P31652)", 7.94],
  ["CC1CN(c2ccc3cc([N+](=O)[O-])ccc3n2)CCN1CCCCN1C(=O)CC2(CCCC2)CC1=O (stereo not given)", "Sodium-dependent serotonin transporter (Rattus norvegicus, UniProt P31652)", 1350],
  ["Clc1cc(Cl)cc(COC[C@H](c2ccccc2)N2CCNCC2)c1", "Sodium-dependent serotonin transporter (Rattus norvegicus, UniProt P31652)", 2.51],
  ["c1ccc(CN2CCC(COC(c3ccccc3)c3ccccc3)CC2)cc1", "Sodium-dependent serotonin transporter (Rattus norvegicus, UniProt P31652)", 544],
  ["COc1ccc(C(COCc2cc(C(F)(F)F)cc(C(F)(F)F)c2)N2CCNCC2)cc1 (stereo not given)", "Sodium-dependent serotonin transporter (Rattus norvegicus, UniProt P31652)", 100]
]}

I: NC(=O)c1ccc2[nH]cc(C3=CCC(NCCCCCNC4CC=C(c5c[nH]c6ccc(C(N)=O)cc56)CC4)CC3)c2c1 (stereo not given)
II: Brc1cc(Br)cc(COC[C@H](c2ccccc2)N2CCNCC2)c1
III: c1ccc(CCN2CCC(COC(c3ccccc3)c3ccccc3)CC2)cc1
Please produce an ascending ranking of these compounds based on IC50. Output the labels ranked as instructed.
II, I, III
(II: 10 nM, I: 47.5 nM, III: 456 nM)

A: NC(=O)c1ccc2[nH]cc(C3=CCC(NCCNC4CC=C(c5c[nH]c6ccc(C(N)=O)cc56)CC4)CC3)c2c1 (stereo not given)
B: Fc1ccc(CN2CC=C(CCOC(c3ccccc3)c3ccccc3)CC2)cc1
Which numeric IC50 is bigger, that of A or that of B ? Let me know the label of the one you choose.
B
(B: 1110 nM, A: 12.6 nM)

###

Across several studies, compounds have been characterized by their IC50 on UniProtKB P31652; a selection follows.
OBSERVED_PROPERTY: IC50 (nM)

Known IC50 results, listed for orientation:
{"columns": ["COMPOUND", "TGT", "OUTPUT_UNIT", "IC50"],
 "data": [
  ["CC1CN(c2ccc3cc([N+](=O)[O-])ccc3n2)CCN1CCCCN1C(=O)CC(C)(C)CC1=O (stereo not drawn)", "UniProtKB P31652", "nM", 807],
  ["CC(C)(C)c1cc(COCC(c2ccccc2)N2CCNCC2)cc(C(C)(C)C)c1 (stereo not drawn)", "UniProtKB P31652", "nM", 1000],
  ["CC1(C)CC(=O)N(CCCCN2CCN(c3ccc4ccccc4n3)CC2)C(=O)C1", "UniProtKB P31652", "nM", 146]
]}

A: N#Cc1ccc(N2CCC(NCCC(O)c3csc4ccccc34)CC2)cc1 (stereo not drawn)
B: N#Cc1ccc(N2CCCN(CCC(O)c3csc4ccccc34)CC2)cc1 (stereo not drawn)
C: Fc1ccc(C(OCC2CCN(CCc3ccccc3)CC2)c2ccc(F)cc2)cc1
D: CC1(C)CC(=O)N(CCCCN2CCN(c3ccc4cc([N+](=O)[O-])ccc4n3)CC2)C(=O)C1
E: Fc1ccc(C(COCc2cc(C(F)(F)F)cc(C(F)(F)F)c2)N2CCNCC2)cc1 (stereo not drawn)
Please produce an ascending ranking of these compounds based on IC50. Output the labels ranked as instructed.
E, C, D, A, B

P: O=C1CCCC(=O)N1CCCCN1CCN(c2ccc3cc([N+](=O)[O-])ccc3n2)CC1
Q: CCN1CCc2c(sc3ccccc23)C(c2ccccc2)C1 (stereo not drawn)
Which numeric IC50 is bigger, that of P or that of Q ? Let me know the label of the one you choose.
P

I: O=C1c2ccccc2C(=O)N1CCCCN1CCN(c2ccc3cc([N+](=O)[O-])ccc3n2)CC1
II: CC1CN(c2ccc3ccccc3n2)CCN1CCCCN1C(=O)c2ccccc2C1=O (stereo not drawn)
Returns the identifier with the smallest measured IC50 among I and II . Let me know the label of the one you choose.
II
(II: 33 nM, I: 4130 nM)
